// read-out IC50, gathered for Acetyl-CoA carboxylase 1 (Homo sapiens) from published studies
MEASURE NAME: IC50 (nM)

INSERT INTO results (compound, value) VALUES
  ('COc1ccccc1C(Cn1c(=O)n(C(C)(C)C(=O)O)c(=O)c2c(C)c(-c3ncco3)sc21)OC1CCNCC1 (stereo not shown)', 7.66),
  ('COc1ccccc1C(Cn1c(=O)n(C2CC(OCCF)C2)c(=O)c2c(C)c(-c3ncco3)sc21)OC1CCOCC1 (stereo not shown)', 136),
  ('COc1cc(C(=O)N2CCC3(CC2)Cc2ccc(-c4cncc(C(=O)O)c4)cc2C(=O)O3)nc2c(OC)cccc12', 27.5);

1 = COc1ccccc1C(Cn1c(=O)n(C(C)(C)C(=O)O)c(=O)c2c(C)c(-c3ncco3)sc21)O[C@H]1C[C@H]2CC(C#N)C[C@H]2C1 (stereo partly shown)
2 = COc1ccccc1C(Cn1nc(C(C)(C)C(=O)O)c(=O)c2c(C)c(-c3ncco3)sc21)OC1CCN(C(=O)OC(C)(C)C)CC1 (stereo not shown)
3 = COc1ccccc1[C@H](Cn1c(=O)n(C2CC(CC(=O)O)C2)c(=O)c2c(C)c(-c3ncco3)sc21)OC1CCOCC1 (stereo partly shown)
4 = COc1ccccc1[C@H](Cn1c(=O)n(C(C)(C)C(=O)O)c(=O)c2c(C)c(-c3ncco3)sc21)OC1C[C@@H]2COC[C@H]2C1
I would appreciate it if you could sort these 4 compounds by IC50, starting from the smallest number. Order the labels as requested and give them as your answer.
3, 4, 1, 2
